So I've got a bunch of substances here, and I need their pEC50 values.
- target or test system: hGIPR (Homo sapiens, UniProt P48546)
- Sequence (P48546 22-466): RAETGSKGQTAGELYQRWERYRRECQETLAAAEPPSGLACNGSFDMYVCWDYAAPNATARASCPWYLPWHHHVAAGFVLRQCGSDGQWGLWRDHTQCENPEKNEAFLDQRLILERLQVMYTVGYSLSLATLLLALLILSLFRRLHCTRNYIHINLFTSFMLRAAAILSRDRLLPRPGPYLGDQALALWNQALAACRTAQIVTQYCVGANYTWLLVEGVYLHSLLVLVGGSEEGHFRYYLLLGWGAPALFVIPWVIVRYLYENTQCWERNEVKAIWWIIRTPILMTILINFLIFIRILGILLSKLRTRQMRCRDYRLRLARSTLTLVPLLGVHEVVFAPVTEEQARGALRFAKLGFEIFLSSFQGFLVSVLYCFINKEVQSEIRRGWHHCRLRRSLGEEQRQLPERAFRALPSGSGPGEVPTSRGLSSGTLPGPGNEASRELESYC
- assay details: Functional cAMP activation in the presence of 0.1% casein (no HSA);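 note: intracellular cAMP rise after 30 min at 37 °C read by HTRF against a standard curve, scaled between buffer alone (0%) and top control ligand concentration (100%), four-parameter fit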
- Type: cell-based
- run conditions: in the presence of 0.1% casein (no HSA); geometric mean; read-out: Relative cAMP EC50, hGIPR
Starred links: 1 amine or outer side, 2 acyl side, 3 side chain; linkers in the order of their positions; H or OH if unused. Non-standard residues stand in square brackets, D forms with d. Groups on a side chain read outwards from the residue. *: point of attachment. C18 diacid = O=C(O)CCCCCCCCCCCCCCCCC(=O)*; γGlu = O=C(O)[C@H](CCC(=O)[*:2])N[*:1]; αMeL = CC(C)C[C@](C)(N)C(=O)O; Orn = NCCC[C@H](N)C(=O)O; Dap = NC[C@H](N)C(=O)O; AEEA = NCCOCCOCC(=O)O; Aib = CC(C)(N)C(=O)O
One number for each entry, as −log10 of the molar value.

These solved cases illustrate the format of a correct answer.
H-Y[Aib]QGTFTSDFS[Orn][αMeL]LDKK([AEEA-γGlu-C18 diacid])AQ[Aib]AFIEWLLEGGSSSGAPPPGGT-NH2 [Example 272] ... 9.60
H-Y[Aib]QGTFTSDFSK[αMeL]LDKK([AEEA-AEEA-γGlu-C18 diacid])AQ[Aib]AFIEYLLEGGESSGAPPPSGS-NH2 [Example 147] ... 9.46

Please indicate pEC50 recorded for H-Y[Aib]QGTFTSDFS[Dap][αMeL]LDKK([γGlu-γGlu-C18 diacid])AQ[Aib]AFIEYLLE[Aib]GPSSGAPPPSGS-NH2 [Example 203] 9.90

Reference source for all entries: patent US20240270821A1
